Test system: M. tuberculosis ATCC 35838
assay.remarks: Spot culture growth inhibition assay (SPOTi), MIC
Type: cell-based, Mycobacterium tuberculosis
condition.notes: IC50 Vero / MIC M. tuberculosis ATCC 35838 RR
Kindly supply the reported Selectivity Index (SI) (SI = IC50/MIC) g values for the records listed here.
Numbers only.

>  <compound>
CC(/C=C/c1cc2ccc(Cl)cc2[nH]c1=O)=N\NC(N)=S [Compound 11d]

>  <Selectivity Index (SI) (SI = IC50/MIC) g>
0.50

$$$$
>  <compound>
CC(/C=C/c1cc2cc(Br)ccc2[nH]c1=O)=N\NC(N)=S [Compound 11e]

>  <Selectivity Index (SI) (SI = IC50/MIC) g>
0.81

$$$$
>  <compound>
CC(/C=C/c1cc2cc(C)ccc2[nH]c1=O)=N\NC(N)=S [Compound 11b]

>  <Selectivity Index (SI) (SI = IC50/MIC) g>
1.06

$$$$

The compound listed as CC(/C=C/c1cc2cccc(C)c2[nH]c1=O)=N\NC(N)=S [Compound 11c] has a reported Selectivity Index (SI) (SI = IC50/MIC) g of 1.14

---

assay.remarks: MTT cytotoxicity assay
condition.notes: African green monkey
Kindly supply the reported IC50 at 48 h values for the records listed here.

Below, each entry is followed by its recorded IC50 at 48 h result.
>  <compound>
CC(/C=C/c1cc2cc(Br)ccc2[nH]c1=O)=N\NC(N)=S [Compound 11e]

>  <IC50 at 48 h>
2200 nM

$$$$
>  <compound>
CC(/C=C/c1cc2cccc(C)c2[nH]c1=O)=N\NC(N)=S [Compound 11c]

>  <IC50 at 48 h>
1900 nM

$$$$
>  <compound>
CC(/C=C/c1cc2ccc(Cl)cc2[nH]c1=O)=N\NC(N)=S [Compound 11d]

>  <IC50 at 48 h>
1650 nM

$$$$

Okay, now this compound:
The compound listed as CC(/C=C/c1cc2cc(C)ccc2[nH]c1=O)=N\NC(N)=S [Compound 11b] has a reported IC50 at 48 h of 3530 nM

---

Tested on: M. tuberculosis H37Rv
assay.remarks: Spot culture growth inhibition assay (SPOTi), MIC
Format: cell-based, Mycobacterium tuberculosis
condition.notes: IC50 Vero / MIC M. tuberculosis H37Rv
Kindly supply the reported Selectivity Index (SI) (SI = IC50/MIC) b values for the records listed here.
Answers are plain numbers.

Give Selectivity Index (SI) (SI = IC50/MIC) b for each of the items listed below.
1. CC(/C=C/c1cc2cccc(C)c2[nH]c1=O)=N\NC(N)=S [Compound 11c]
2. CC(/C=C/c1cc2ccc(Cl)cc2[nH]c1=O)=N\NC(N)=S [Compound 11d]
3. CC(/C=C/c1cc2cc(C)ccc2[nH]c1=O)=N\NC(N)=S [Compound 11b]
4. CC(/C=C/c1cc2cc(Br)ccc2[nH]c1=O)=N\NC(N)=S [Compound 11e]

## Result
1. 11.88
2. 11.00
3. 22.06
4. 16.92

---

System: M. tuberculosis Beijing
assay.remarks: Spot culture growth inhibition assay (SPOTi), MIC
Type: cell-based, Mycobacterium tuberculosis
condition.notes: IC50 Vero / MIC M. tuberculosis Beijing
property: Selectivity Index (SI) (SI = IC50/MIC) d
Give bare numbers.

Give Selectivity Index (SI) (SI = IC50/MIC) d for each of the items listed below.
1. CC(/C=C/c1cc2cccc(C)c2[nH]c1=O)=N\NC(N)=S [Compound 11c]
2. CC(/C=C/c1cc2cc(Br)ccc2[nH]c1=O)=N\NC(N)=S [Compound 11e]
3. CC(/C=C/c1cc2ccc(Cl)cc2[nH]c1=O)=N\NC(N)=S [Compound 11d]

## Result
5.76
8.15
5.00

The compound listed as CC(/C=C/c1cc2cc(C)ccc2[nH]c1=O)=N\NC(N)=S [Compound 11b] has a reported Selectivity Index (SI) (SI = IC50/MIC) d of 2.13
